- Experimental Protocol: Selectivity index, ratio of CC50 for human TZM-bl cells to EC50 for drug-resistance HIV1 RTMDR1 infected in human TZM-bl cells
- Format: toxicity, cell-based
- Test Context: read-out: Ratio CC50/EC50
Values of selectivity ratio strictly less than 100 map to MET, and values of at least 100 map to NOT MET.

Hello, I'm reviewing records and need to know if selectivity ratio of COc1cc2c(c3oc4cccc(C)c4c(=O)c13)[C@@H](OC(=O)C13CCC(C)(C(=O)O1)C3(C)C)[C@@H](OC(=O)C13CCC(C)(C(=O)O1)C3(C)C)C(C)(C)O2 (some centres undefined) is below 100. Could you check?
MET

Hello, I'm reviewing records and need to know if selectivity ratio of COc1cc2c(c3oc4ccc(F)cc4c(=O)c13)[C@@H](OC(=O)C13CCC(C)(C(=O)O1)C3(C)C)[C@@H](OC(=O)C13CCC(C)(C(=O)O1)C3(C)C)C(C)(C)O2 (some centres undefined) is below 100. Could you check?
NOT MET

Hello, I'm reviewing records and need to know if selectivity ratio of COc1cc2c(c3oc4cccc(F)c4c(=O)c13)[C@@H](OC(=O)C13CCC(C)(C(=O)O1)C3(C)C)[C@@H](OC(=O)C13CCC(C)(C(=O)O1)C3(C)C)C(C)(C)O2 (some centres undefined) is below 100. Could you check?
NOT MET

Hello, I'm reviewing records and need to know if selectivity ratio of COc1cc2c(c3oc4ccccc4c(=O)c13)[C@@H](OC(=O)C13CCC(C)(C(=O)O1)C3(C)C)[C@@H](OC(=O)C13CCC(C)(C(=O)O1)C3(C)C)C(C)(C)O2 (some centres undefined) is below 100. Could you check?
NOT MET

Hello, I'm reviewing records and need to know if selectivity ratio of CCc1cc(=O)c2ccc3c(c2o1)[C@@H](OC(=O)C12CCC(C)(C(=O)O1)C2(C)C)[C@@H](OC(=O)C12CCC(C)(C(=O)O1)C2(C)C)C(C)(C)O3 (some centres undefined) is below 100. Could you check?
NOT MET

Hello, I'm reviewing records and need to know if selectivity ratio of COc1cc2c(c3oc4ccc(C)cc4c(=O)c13)[C@@H](OC(=O)C13CCC(C)(C(=O)O1)C3(C)C)[C@@H](OC(=O)C13CCC(C)(C(=O)O1)C3(C)C)C(C)(C)O2 (some centres undefined) is below 100. Could you check?
NOT MET

Hello, I'm reviewing records and need to know if selectivity ratio of COc1ccc2oc3c4c(cc(OC)c3c(=O)c2c1)OC(C)(C)[C@H](OC(=O)C12CCC(C)(C(=O)O1)C2(C)C)[C@@H]4OC(=O)C12CCC(C)(C(=O)O1)C2(C)C (some centres undefined) is below 100. Could you check?
MET
